- EXPERIMENT: AUC(0-tz) in monkey at 30 mg/kg, po
- Type: ADME, organism-based, Macaca mulatta
- Set-up: dose 30 mg/kg, route oral
- ASSAY CONDITIONS: rhesus monkey, plasma
METRIC: AUC

> print(dat)
                              smiles.string       result
1  CN1CCN(CCC#CC(=O)Nc2cc3c(Nc4ccc(F)c(Cl)c4)ncnc3cn2)CC1  485 ng·h/mL

* * *

- EXPERIMENT: Cmax in rat at 15 mg/kg, po
- Type: ADME, organism-based
- Design: dose 15 mg/kg, route oral
- ASSAY CONDITIONS: in vivo
METRIC: Cmax (ng/mL)

> print(dat)
                              smiles.string  metric  numeric.value
1  CN1CCN(CCC#CC(=O)Nc2cc3c(Nc4ccc(F)c(Cl)c4)ncnc3cn2)CC1    Cmax           56.3

* * *

- EXPERIMENT: Volume of distribution in rat at 5 mg/kg, iv
- Assay type: ADME, organism-based
- Parameters: dose 5 mg/kg, route intravenous
- ASSAY CONDITIONS: in vivo, read-out: Vdss
METRIC: Vd (L/kg)

> print(dat)
                              smiles.string  value.unit  numeric.value
1  CN1CCN(CCC#CC(=O)Nc2cc3c(Nc4ccc(F)c(Cl)c4)ncnc3cn2)CC1        L/kg            3.1

* * *

- TARGET OR SYSTEM: Receptor tyrosine-protein kinase erbB-4 (Homo sapiens, UniProt Q15303)
- Sequence (Q15303 whole entry): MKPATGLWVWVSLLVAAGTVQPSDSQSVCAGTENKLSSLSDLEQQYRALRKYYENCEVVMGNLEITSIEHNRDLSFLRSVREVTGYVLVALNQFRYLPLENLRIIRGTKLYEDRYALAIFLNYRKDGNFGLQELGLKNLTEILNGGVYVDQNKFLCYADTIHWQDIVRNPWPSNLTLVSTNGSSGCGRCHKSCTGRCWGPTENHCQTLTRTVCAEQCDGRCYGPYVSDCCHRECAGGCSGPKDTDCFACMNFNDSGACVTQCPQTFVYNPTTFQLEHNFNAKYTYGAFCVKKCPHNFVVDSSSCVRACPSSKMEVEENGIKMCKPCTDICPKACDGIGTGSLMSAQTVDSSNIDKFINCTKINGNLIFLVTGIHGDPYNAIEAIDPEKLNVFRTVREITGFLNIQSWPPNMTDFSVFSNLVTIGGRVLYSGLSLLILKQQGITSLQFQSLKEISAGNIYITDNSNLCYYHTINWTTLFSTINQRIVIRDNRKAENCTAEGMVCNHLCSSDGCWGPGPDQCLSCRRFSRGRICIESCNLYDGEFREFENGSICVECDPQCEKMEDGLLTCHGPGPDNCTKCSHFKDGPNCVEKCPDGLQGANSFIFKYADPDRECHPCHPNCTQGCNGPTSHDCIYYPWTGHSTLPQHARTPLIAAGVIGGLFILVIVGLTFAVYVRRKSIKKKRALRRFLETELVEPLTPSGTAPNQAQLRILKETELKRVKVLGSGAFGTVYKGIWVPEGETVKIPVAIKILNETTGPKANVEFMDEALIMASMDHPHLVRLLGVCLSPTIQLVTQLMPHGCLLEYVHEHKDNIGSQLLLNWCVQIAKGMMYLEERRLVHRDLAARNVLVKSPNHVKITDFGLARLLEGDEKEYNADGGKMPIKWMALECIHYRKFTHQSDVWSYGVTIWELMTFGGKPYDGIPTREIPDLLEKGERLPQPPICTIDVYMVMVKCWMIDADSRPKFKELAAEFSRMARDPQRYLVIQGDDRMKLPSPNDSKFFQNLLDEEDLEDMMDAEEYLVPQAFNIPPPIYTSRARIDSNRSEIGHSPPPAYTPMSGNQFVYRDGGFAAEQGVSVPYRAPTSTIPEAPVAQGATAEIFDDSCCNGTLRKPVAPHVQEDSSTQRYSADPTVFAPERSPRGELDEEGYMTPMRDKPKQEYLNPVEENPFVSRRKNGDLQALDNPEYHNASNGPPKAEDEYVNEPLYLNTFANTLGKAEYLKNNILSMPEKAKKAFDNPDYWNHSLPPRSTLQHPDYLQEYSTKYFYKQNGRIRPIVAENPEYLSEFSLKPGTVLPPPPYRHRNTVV
Catalogue of IC50 values
METRIC: IC50 (nM)

> print(dat)
                              smiles.string  value.unit  numeric.value
1  O=C(C#CCCN1CCCCC1)Nc1cc2c(Nc3ccc(F)c(Cl)c3)ncnc2cn1          nM            1.8
2   CC#CC(=O)Nc1ccc2ncnc(Nc3cccc(Br)c3)c2c1          nM             12
3  O=C(C#CCCN1CCOCC1)Nc1cc2c(Nc3ccc(F)c(Cl)c3)ncnc2cn1          nM              1
4  CCCC#CC(=O)Nc1cc2c(Nc3ccc(F)c(Cl)c3)ncnc2cn1          nM            2.4
5  CN1CCN(CCC#CC(=O)Nc2cc3c(Nc4ccc(F)c(Br)c4)ncnc3cn2)CC1          nM            0.8
6  O=C(C#CCN1CCOCC1)Nc1ccc2ncnc(Nc3ccc(F)c(Cl)c3)c2c1          nM            229
7  O=C(C#CCCN1CCOCC1)Nc1cc2c(Nc3ccc(F)c(Br)c3)ncnc2cn1          nM              1
8  CCCCC#CC(=O)Nc1cc2c(Nc3ccc(F)c(Cl)c3)ncnc2cn1          nM            7.1
9    C#CC(=O)Nc1ccc2ncnc(Nc3cccc(Br)c3)c2c1          nM            1.7

* * *

- EXPERIMENT: Oral bioavailability in rat at 15 mg/kg
- Assay type: ADME, organism-based
- ASSAY CONDITIONS: in vivo
METRIC: bioavailability (%)

> print(dat)
                              smiles.string           metric  value.unit  numeric.value
1  CN1CCN(CCC#CC(=O)Nc2cc3c(Nc4ccc(F)c(Cl)c4)ncnc3cn2)CC1  bioavailability           %           11.4
